# TARGET OF ASSAY: various mutants of kinase EGFR (BaF3 cell lines stably transfected with kinase) (Homo sapiens)
# Construct: other: BaF3 cells stably transfected with EGFR Δ19Del; MTS, 48 h; other: BaF3 cell line stably transfected with EGFR Δ19Del
# EXPERIMENT: Growth inhibitory activity of compounds on BaF3 cell lines stably transfected with kinase (MTS, 48 h)
# Assay type: cell-based
# CONDITION SET: BaF3 cell line stably transfected with EGFR Δ19Del, read-out: Δ19Del growth inhibitory activity IC50
pIC50: −log10 of the molar value.
MEASURE: pIC50

Please review the following examples before continuing.
CCc1cc(Nc2nccc(Nc3ccc4nccnc4c3N(C)S(C)(=O)=O)n2)c(OC)cc1N1CCC(N2CCN(C)CC2)CC1 :: ≥ 7.30
C=Cc1cc(Nc2nc(Nc3ccc4nccnc4c3N(C)S(C)(=O)=O)c3[nH]ccc3n2)c(OC(F)(F)F)cc1N1CCC(N2CCN(C)CC2)CC1 :: 6.30 to 7.30
CN1CCN(C2CCN(c3ccc(Nc4ncc(Br)c(Nc5ccc6nccnc6c5NS(C)(=O)=O)n4)c(F)c3F)CC2)CC1 :: ≥ 7.30

# pIC50 lookup, item `CCc1cc(Nc2ncc(C)c(Nc3ccc4nccnc4c3N(C)S(C)(=O)=O)n2)c(OC)cc1N1CCN(C)CC1`
≥ 7.30

Would you kindly share the measured pIC50 for `COc1cc(N2CCC(N3CCN(C)CC3)CC2)c(Cc2ccccc2)cc1Nc1nc(Nc2ccc3nccnc3c2N(C)S(C)(=O)=O)c2sccc2n1` ?
5.60 to 6.30

====

# TARGET OF ASSAY: various mutants of kinase EGFR (BaF3 cell lines stably transfected with kinase) (Homo sapiens, UniProt P00533, L858R)
# Construct: expressed in transfected cells; host or cells: BaF3
# Sequence (P00533 25-1210 L858R): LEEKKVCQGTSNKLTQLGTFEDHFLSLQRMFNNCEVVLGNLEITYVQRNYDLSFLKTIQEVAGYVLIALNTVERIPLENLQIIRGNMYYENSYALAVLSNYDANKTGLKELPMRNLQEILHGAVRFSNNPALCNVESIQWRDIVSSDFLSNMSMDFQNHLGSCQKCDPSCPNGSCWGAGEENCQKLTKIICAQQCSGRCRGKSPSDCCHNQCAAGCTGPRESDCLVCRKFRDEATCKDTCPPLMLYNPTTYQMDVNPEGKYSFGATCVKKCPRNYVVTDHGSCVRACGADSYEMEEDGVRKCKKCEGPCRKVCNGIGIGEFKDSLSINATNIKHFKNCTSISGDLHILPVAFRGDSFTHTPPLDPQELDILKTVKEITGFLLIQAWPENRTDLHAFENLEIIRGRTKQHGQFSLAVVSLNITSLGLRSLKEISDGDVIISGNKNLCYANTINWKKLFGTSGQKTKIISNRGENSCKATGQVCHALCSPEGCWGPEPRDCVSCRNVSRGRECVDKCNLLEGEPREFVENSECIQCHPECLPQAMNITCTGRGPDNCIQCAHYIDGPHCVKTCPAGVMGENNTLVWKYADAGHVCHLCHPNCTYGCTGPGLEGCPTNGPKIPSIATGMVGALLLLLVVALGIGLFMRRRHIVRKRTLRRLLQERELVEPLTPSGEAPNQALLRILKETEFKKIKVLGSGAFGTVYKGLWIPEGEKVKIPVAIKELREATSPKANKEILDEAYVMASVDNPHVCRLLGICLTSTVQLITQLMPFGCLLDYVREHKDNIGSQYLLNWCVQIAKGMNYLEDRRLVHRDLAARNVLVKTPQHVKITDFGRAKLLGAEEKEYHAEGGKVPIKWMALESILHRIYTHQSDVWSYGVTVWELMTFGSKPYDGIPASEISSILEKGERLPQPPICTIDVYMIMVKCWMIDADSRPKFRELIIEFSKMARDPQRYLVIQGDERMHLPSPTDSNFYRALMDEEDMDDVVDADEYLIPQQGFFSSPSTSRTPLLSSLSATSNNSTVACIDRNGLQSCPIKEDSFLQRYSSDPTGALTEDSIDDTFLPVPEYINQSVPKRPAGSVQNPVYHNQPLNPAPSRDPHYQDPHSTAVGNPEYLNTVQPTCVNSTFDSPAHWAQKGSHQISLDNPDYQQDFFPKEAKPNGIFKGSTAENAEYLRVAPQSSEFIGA
# EXPERIMENT: Growth inhibitory activity of compounds on BaF3 cell lines stably transfected with kinase (MTS, 48 h)
# Type: cell-based
# CONDITION SET: BaF3 cells stably transfected with EGFR L858R, read-out: IC50, growth inhibition, L858R
pIC50: −log10 of the molar value.
Catalogue of pIC50 readings, one per entry.

Below, 10 compounds whose answers are already recorded.
CN1CCc2cc(F)c(Nc3ncc(Br)c(Nc4ccc5nccnc5c4N(C)S(C)(=O)=O)n3)cc2C1 :: ≥ 7.30
COc1cc(N2CCC(N3CCN(C)CC3)CC2)c(C)cc1Nc1ncc(Br)c(Nc2ccc3nccnc3c2N(C)S(=O)(=O)C(F)(F)F)n1 :: 5.60 to 6.30
CCc1cc(Nc2ncc(C(F)(F)F)c(Nc3ccc4nccnc4c3N(C)S(C)(=O)=O)n2)c(OC)cc1N1CCC(N(C)C)CC1 :: ≥ 7.30
CCc1cc(Nc2ncc(Br)c(Nc3ccc4nccnc4c3N(CC)S(C)(=O)=O)n2)c(OC)cc1N1CCC(N2CCN(C)CC2)CC1 :: ≥ 7.30
C=Cc1cc(Nc2ncc(Br)c(Nc3ccc4nccnc4c3N(C)S(=O)(=O)C(F)(F)F)n2)c(OC(F)(F)F)cc1N1CCC(N2CCN(C)CC2)CC1 :: 5.60 to 6.30
COc1cc(N2CCC(N(C)C)C2)c(C)cc1Nc1ncc([N+](=O)[O-])c(Nc2ccc3nccnc3c2N(C)S(C)(=O)=O)n1 (centres unmarked) :: 6.30 to 7.30
CCc1cc(Nc2ncc(F)c(Nc3ccc4nccnc4c3N(C)S(=O)(=O)C3CC3)n2)c(OC(F)(F)F)cc1N1CCC(N2CCN(C)CC2)CC1 :: 6.30 to 7.30
CCc1cc(Nc2ncc(Cl)c(Nc3ccc4nccnc4c3N(C)S(=O)(=O)CC)n2)c(OC)cc1N1CCC(N(C)C)C1 (centres unmarked) :: ≥ 7.30
CCc1cc(Nc2ncc(OC)c(Nc3ccc4nccnc4c3N(C)S(C)(=O)=O)n2)c(OC)cc1N1CCC(N(C)C)CC1 :: ≥ 7.30
CN1CCN(C2CCN(c3ccc(Nc4ncc(C(F)(F)F)c(Nc5ccc6nccnc6c5N(C)S(C)(=O)=O)n4)c(OC(F)(F)F)c3)CC2)CC1 :: 6.30 to 7.30

Which pIC50 value belongs to `COc1cc(N2CCC(N3CCN(C)CC3)CC2)c(C2CC2)cc1Nc1ncc(Cl)c(Nc2ccc3nccnc3c2N(C)S(C)(=O)=O)n1` ?
6.30 to 7.30

====

# TARGET OF ASSAY: various mutants of kinase EGFR (BaF3 cell lines stably transfected with kinase) (Homo sapiens, UniProt P00533, T790M/C797S, form not given)
# Construct: other: BaF3 cells stably transfected with EGFR Δ19Del/T790M/C797S; MTS, 48; other: BaF3 cell line stably transfected with EGFR Δ19Del/T790M/C7
# Sequence (P00533 with tags, fused parts or gaps DEL746-750/T790M/C797S, form open): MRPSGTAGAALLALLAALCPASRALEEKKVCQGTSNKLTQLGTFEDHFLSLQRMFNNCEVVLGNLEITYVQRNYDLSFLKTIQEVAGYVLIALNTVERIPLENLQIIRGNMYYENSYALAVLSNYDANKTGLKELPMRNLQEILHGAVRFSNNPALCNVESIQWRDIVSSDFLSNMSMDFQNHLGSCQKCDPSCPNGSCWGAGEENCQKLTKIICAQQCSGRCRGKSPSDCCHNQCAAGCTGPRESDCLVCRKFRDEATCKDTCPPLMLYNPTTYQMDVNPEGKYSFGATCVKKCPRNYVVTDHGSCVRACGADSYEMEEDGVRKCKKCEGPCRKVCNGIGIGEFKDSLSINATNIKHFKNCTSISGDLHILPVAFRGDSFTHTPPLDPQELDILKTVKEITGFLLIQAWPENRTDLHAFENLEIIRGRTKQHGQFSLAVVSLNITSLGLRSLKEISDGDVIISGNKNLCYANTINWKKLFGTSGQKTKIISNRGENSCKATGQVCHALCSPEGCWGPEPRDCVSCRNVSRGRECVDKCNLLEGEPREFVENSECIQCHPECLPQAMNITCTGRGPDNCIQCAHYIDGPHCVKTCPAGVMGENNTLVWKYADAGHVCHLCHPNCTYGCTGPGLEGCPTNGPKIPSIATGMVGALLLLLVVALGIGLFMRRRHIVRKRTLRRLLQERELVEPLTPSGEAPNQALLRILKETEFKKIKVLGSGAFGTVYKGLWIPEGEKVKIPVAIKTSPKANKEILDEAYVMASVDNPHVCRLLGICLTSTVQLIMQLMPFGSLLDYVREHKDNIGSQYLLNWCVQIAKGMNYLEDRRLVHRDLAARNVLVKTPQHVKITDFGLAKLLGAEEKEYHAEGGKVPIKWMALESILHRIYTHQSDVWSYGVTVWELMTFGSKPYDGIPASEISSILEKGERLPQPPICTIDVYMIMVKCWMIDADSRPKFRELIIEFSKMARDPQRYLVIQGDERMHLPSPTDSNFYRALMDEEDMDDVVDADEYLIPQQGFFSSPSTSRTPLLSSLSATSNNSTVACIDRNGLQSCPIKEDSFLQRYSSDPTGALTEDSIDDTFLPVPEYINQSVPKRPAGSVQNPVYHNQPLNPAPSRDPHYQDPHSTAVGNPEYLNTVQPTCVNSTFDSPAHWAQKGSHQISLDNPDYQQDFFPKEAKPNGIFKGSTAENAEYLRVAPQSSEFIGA
# EXPERIMENT: Growth inhibitory activity of compounds on BaF3 cell lines stably transfected with kinase (MTS, 48 h)
# Format: cell-based
# CONDITION SET: BaF3 cells stably transfected with EGFR Δ19Del/T790M/C797S, read-out: IC50, growth inhibition, Δ19Del/T790M/C797S
pIC50: −log10 of the molar value.
pIC50 values, listed per item

CCN(c1c(Nc2nc(Nc3cc(C)c(N4CCC(N(C)C)C4)cc3OC)ncc2Cl)ccc2nccnc12)S(C)(=O)=O (centres unmarked) [Compound I-233] :: ≥ 7.30
CCc1cc(Nc2ncc(Cl)c(Nc3ccc4nccnc4c3N(C)S(=O)(=O)C(C)C)n2)c(OC)cc1N1CCC(N(C)C)CC1 [Compound I-142] :: ≥ 7.30
COc1cc(N2CCC(N3CCN(C)CC3)CC2)ccc1Nc1ncc(C(F)(F)F)c(Nc2ccc3nccnc3c2N(C)S(C)(=O)=O)n1 [Compound I-33] :: ≥ 7.30
COc1cc(C(=O)N2CCC(N3CCN(C)CC3)CC2)ccc1Nc1ncc(Br)c(Nc2ccc3nccnc3c2N(C)S(C)(=O)=O)n1 [Compound I-48] :: ≥ 7.30
COc1cc(N2CCC(N3CCN(C)CC3)CC2)c(CC2CC2)cc1Nc1ncc(Cl)c(Nc2ccc3nccnc3c2N(C)S(=O)(=O)C(F)(F)F)n1 [Compound I-264] :: 6.30 to 7.30

Please look up its pIC50: CCc1cc(Nc2ncc(Br)c(Nc3ccc4nccnc4c3N(CC)S(C)(=O)=O)n2)c(OC)cc1N1CCC(N(C)C)CC1 [Compound I-97]
≥ 7.30

Can you look up the measured pIC50 of CN(c1c(Nc2nc(Nc3cnn(C)c3)ncc2Br)ccc2nccnc12)S(C)(=O)=O [Compound I-67] for me?
6.30 to 7.30

Consider the compound COc1cc(N2CCC(N3CCN(C)CC3)CC2)c(Cc2ccccc2)cc1Nc1ncc(F)c(Nc2ccc3nccnc3c2N(C)S(C)(=O)=O)n1 [Compound I-182] and give its measured pIC50.
5.60 to 6.30

====

# TARGET OF ASSAY: various mutants of kinase EGFR (BaF3 cell lines stably transfected with kinase) (Homo sapiens, UniProt P00533, L858R/T790M)
# Construct: expressed in transfected cells; host or cells: BaF3
# Sequence (P00533 25-1210 T790M/L858R): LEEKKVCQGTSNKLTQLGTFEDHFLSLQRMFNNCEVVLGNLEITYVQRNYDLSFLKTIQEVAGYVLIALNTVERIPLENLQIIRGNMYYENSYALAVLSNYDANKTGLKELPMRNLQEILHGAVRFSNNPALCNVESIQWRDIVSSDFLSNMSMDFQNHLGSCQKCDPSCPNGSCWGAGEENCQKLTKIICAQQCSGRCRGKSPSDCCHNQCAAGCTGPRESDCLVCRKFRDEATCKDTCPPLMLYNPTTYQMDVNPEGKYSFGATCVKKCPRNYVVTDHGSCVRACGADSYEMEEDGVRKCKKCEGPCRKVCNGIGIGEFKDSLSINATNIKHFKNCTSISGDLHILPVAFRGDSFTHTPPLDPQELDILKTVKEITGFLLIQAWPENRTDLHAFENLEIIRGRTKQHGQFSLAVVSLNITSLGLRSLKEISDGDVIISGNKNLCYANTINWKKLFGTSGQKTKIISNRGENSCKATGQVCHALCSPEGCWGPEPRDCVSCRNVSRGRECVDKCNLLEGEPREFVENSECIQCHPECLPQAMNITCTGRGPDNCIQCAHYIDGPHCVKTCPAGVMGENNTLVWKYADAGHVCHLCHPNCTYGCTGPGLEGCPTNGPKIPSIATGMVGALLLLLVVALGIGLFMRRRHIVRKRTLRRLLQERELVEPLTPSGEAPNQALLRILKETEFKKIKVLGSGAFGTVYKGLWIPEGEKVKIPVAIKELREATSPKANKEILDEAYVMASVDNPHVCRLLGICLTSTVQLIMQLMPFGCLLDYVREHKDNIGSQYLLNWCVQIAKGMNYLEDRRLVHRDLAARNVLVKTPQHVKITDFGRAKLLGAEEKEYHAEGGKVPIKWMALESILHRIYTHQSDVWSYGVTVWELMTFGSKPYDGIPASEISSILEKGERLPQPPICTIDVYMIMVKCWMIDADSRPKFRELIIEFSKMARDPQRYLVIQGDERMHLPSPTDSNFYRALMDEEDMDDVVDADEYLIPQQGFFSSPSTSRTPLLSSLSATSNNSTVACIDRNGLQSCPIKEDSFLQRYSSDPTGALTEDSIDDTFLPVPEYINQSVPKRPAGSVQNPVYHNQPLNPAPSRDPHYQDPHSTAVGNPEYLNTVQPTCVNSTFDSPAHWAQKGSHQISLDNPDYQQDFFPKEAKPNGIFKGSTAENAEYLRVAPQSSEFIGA
# EXPERIMENT: Growth inhibitory activity of compounds on BaF3 cell lines stably transfected with kinase (MTS, 48 h)
# Format: cell-based
# CONDITION SET: BaF3 cells stably transfected with EGFR L858R/T790M, read-out: IC50, growth inhibition, L858R/T790M
Quick reference: IC50 of the listed items.

CN(c1c(Nc2nc(Nc3cccc(N4CCC(O)CC4)c3)ncc2Br)ccc2nccnc12)S(C)(=O)=O :: ≤ 50 nM

Quick one: IC50 of `COc1cc(N2CCOCC2)ccc1Nc1ncc(Br)c(Nc2ccc3nccnc3c2N(C)S(C)(=O)=O)n1` ?
50 to 500 nM

Sample `C=Cc1cc(Nc2ncc(C(F)(F)F)c(Nc3ccc4nccnc4c3N(C)S(C)(=O)=O)n2)c(OC(F)(F)F)cc1N1CCC(N2CCN(C)CC2)CC1` — what was its IC50?
≤ 50 nM

// IC50 lookup, key: `Cc1cc(Nc2ncc(Br)c(Nc3ccc4nccnc4c3N(C)S(C)(=O)=O)n2)c(OC(C)C)cc1C1CCN(C)CC1`
50 to 500 nM

Field request: IC50 | item: `CN1CCN(c2ccc(Nc3ncc(Br)c(Nc4ccc5nccnc5c4N(C)S(C)(=O)=O)n3)cn2)CC1`
≤ 50 nM

====

# TARGET OF ASSAY: various mutants of kinase EGFR (BaF3 cell lines stably transfected with kinase) (Homo sapiens, UniProt P00533, C797S/L858R/T790M)
# Construct: expressed in transfected cells; host or cells: BaF3
# Sequence (P00533 25-1210 T790M/C797S/L858R): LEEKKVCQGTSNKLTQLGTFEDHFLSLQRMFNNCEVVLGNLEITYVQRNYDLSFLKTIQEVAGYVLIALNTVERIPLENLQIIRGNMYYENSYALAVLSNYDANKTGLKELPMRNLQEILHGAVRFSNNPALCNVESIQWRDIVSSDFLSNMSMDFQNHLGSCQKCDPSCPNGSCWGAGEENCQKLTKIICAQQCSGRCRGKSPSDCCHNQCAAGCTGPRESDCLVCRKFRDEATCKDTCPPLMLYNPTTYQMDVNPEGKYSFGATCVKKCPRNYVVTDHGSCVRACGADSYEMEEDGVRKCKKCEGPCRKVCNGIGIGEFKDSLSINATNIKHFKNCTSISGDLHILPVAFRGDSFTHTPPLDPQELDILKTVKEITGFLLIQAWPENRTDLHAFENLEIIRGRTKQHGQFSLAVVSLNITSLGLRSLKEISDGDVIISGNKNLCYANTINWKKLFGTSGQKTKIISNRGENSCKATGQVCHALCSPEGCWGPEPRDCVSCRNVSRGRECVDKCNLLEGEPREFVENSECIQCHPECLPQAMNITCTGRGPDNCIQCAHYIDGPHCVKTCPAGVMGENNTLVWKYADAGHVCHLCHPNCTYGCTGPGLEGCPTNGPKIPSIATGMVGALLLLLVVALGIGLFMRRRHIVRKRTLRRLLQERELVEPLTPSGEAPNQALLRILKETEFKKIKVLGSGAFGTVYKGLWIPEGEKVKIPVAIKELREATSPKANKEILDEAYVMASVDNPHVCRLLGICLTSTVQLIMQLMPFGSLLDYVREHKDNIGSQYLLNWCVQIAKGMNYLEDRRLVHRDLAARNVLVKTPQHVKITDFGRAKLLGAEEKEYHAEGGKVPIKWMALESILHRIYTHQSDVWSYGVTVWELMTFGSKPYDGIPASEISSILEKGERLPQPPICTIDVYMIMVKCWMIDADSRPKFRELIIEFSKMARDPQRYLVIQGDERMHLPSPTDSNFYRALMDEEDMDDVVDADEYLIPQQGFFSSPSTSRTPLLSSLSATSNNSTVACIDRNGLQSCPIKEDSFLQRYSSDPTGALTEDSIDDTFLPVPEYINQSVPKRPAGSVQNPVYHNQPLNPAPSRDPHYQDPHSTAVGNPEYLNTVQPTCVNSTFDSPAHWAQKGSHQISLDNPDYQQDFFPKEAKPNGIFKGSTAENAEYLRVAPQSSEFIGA
# EXPERIMENT: Growth inhibitory activity of compounds on BaF3 cell lines stably transfected with kinase (MTS, 48 h)
# Type: cell-based
# CONDITION SET: BaF3 cells stably transfected with EGFR L858R/T790M/C797S, read-out: IC50, growth inhibition, L858R/T790M/C797S
# Protocol: The activity of compounds against various mutants of kinase EGFR was evaluated by their effect of inhibiting growth of BaF3 cell lines stably transfected with kinase. The specific test method was given as follows: […] 3) Compound test: cells were incubated into a 96-well culture plate, the volume of cytosol was 90 µL, and then 10 µL of the compound at each gradient concentration was added. […] OD values at 490 nm were measured by a microplate reader (VARIOSKAN FLASH, Thermo). […]
pIC50: −log10 of the molar value.
Overview of reported pIC50 across a group of molecules:

Recorded results for 8 molecules are shown here.
CCc1cc(Nc2ncc(Cl)c(Nc3ccc4nccnc4c3N(C3CC3)S(C)(=O)=O)n2)c(OC)cc1N1CCN(C)CC1 :: ≥ 7.30
CCc1cc(Nc2ncc(Br)c(Nc3ccc4nccnc4c3N(C)S(=O)(=O)C(C)C)n2)c(OC)cc1N1CCC(N(C)C)C1 (stereo not shown) :: 6.30 to 7.30
COc1nc(N2CCC(N3CCN(C)CC3)CC2)c(C)cc1Nc1ncc(Cl)c(Nc2ccc3nccnc3c2N(C2CC2)S(C)(=O)=O)n1 :: 5.60 to 6.30
C=Cc1cc(Nc2ncc([N+](=O)[O-])c(Nc3ccc4nccnc4c3N(C)S(C)(=O)=O)n2)c(OC(F)(F)F)cc1N1CCC(N2CCN(C)CC2)CC1 :: 6.30 to 7.30
CCc1cc(Nc2ncc(C(F)(F)F)c(Nc3ccc4nccnc4c3N(C)S(C)(=O)=O)n2)c(OC)cc1N1CCC(N(C)C)CC1 :: ≥ 7.30
CCc1cc(Nc2ncc(Cl)c(Nc3ccc4nccnc4c3N(C)S(=O)(=O)C(F)(F)F)n2)c(OC)cc1N1CCC(N(C)C)CC1 :: 6.30 to 7.30
COc1cc(C(=O)N2CCC(N3CCN(C)CC3)CC2)ccc1Nc1ncc(Br)c(Nc2ccc3nccnc3c2N(C)S(C)(=O)=O)n1 :: ≥ 7.30
COc1cc(N2CCC(N3CCN(C)CC3)CC2)c(C)cc1Nc1ncc(Cl)c(Nc2ccc3nccnc3c2N(C)S(C)(=O)=O)n1 :: ≥ 7.30

Requested read-out: pIC50. Entry: `CCN(c1c(Nc2nc(Nc3cc(C)c(N4CCC(N5CCN(C)CC5)CC4)cc3OC)ncc2Br)ccc2nccnc12)S(C)(=O)=O`
≥ 7.30

Requested read-out: pIC50. Entry: CCc1cc(Nc2ncc(C(F)(F)F)c(Nc3ccc4nccnc4c3N(C)S(C)(=O)=O)n2)c(OC)cc1N1CCC(N(C)C)C1 (stereo not shown)
≥ 7.30

Find the recorded pIC50 belonging to `CCc1cc(Nc2ncc(Br)c(Nc3ccc4nccnc4c3N(C)S(=O)(=O)C(F)(F)F)n2)c(OC)cc1N1CCC(N2CCN(C)CC2)CC1` and report it.
6.30 to 7.30
